test system: SF-295 CNS; test: NCI tumour cell line growth inhibition, 48 h
Where a SMILES comes first, the peptide text is derived from it. [ ]: non-standard residue; d: D form. The star is where a group is joined. Bn2Val = CC(C)[C@@H](C(=O)*)N(Cc1ccccc1)Cc1ccccc1; NH(4-F-benzyl) = Fc1ccc(CN*)cc1; NMeV = CN[C@H](C(=O)O)C(C)C; dNMeA = CN[C@H](C)C(=O)O
Give TGI for every item shown.
Give the value, in units of µM, as a plain number.

Looking up O=C1C=CC(=O)C(c2cc(-c3ccc(Cl)cc3)nn2-c2ccccc2)=C1 , I see its TGI listed as 66.3

Looking up Cc1cc2nc3c4cc(C=O)ccc4n(CCN(C)C)c3nc2cc1C , I see its TGI listed as 5.69

Looking up COC(=O)c1c(O)ccc2c1c1c(n2CCc2ccccc2)C(=O)c2ccccc2C1=O , I see its TGI listed as 36.2

Looking up CC(C)[C@H](NC(=O)[C@H](C(C)C)N(Cc1ccccc1)Cc1ccccc1)C(=O)N(C)[C@H](C(=O)N1CCC[C@H]1C(=O)N(C)[C@H](C)C(=O)NCc1ccc(F)cc1)C(C)C (Bn2Val-V[NMeV]P[dNMeA]-{NH(4-F-benzyl)}) , I see its TGI listed as 13.6
